Procedure Text: Induction of neurite outgrowth in rat hippocampal neurons assessed as neurite total length at 31.25 ng/ml after 48 hrs relative to control
Type: functional, Hippocampal neurone
Property: Activity (%)
Answers are plain numbers, in %.

Use these answered entries as a reference point.
CC1CCC(CN2C(=S)N(CCCC[C@H]3CNC(CCCc4ccccc4)=N3)C[C@H]2c2ccccc2)CC1 (stereo partly drawn) :: 174.3
CC(C)CCCCN1C(=S)N(CCCC[C@H]2CNC(CCCCc3ccccc3)=N2)C[C@H]1c1ccccc1 :: 170.2

Item: CCC(C)C1=N[C@@H](CCCCN2C[C@@H](c3ccccc3)N(CC3CCC(C)CC3)C2=S)CN1 (stereo partly drawn) | Activity: 256.2

* * *

Procedure Text: Induction of neurite outgrowth in rat hippocampal neurons assessed as neurite total length at 62.5 ng/ml after 48 hrs relative to control
Type: functional, Hippocampal neurone
Property: Activity

Use these answered entries as a reference point.
CC1CCC(CCN2C(=S)N(CCCC[C@H]3CNC(CCCCc4ccccc4)=N3)C[C@H]2C)CC1 (stereo partly specified) :: 117.7%
CCC(C)C1=N[C@@H](CCCCN2C[C@@H](c3ccccc3)N(CC3CCC(C)CC3)C2=S)CN1 (stereo partly specified) :: 296.7%
CC1CCC(CN2C(=S)N(CCCC[C@H]3CNC(CCCc4ccccc4)=N3)C[C@H]2c2ccccc2)CC1 (stereo partly specified) :: 237.5%
CCC(C)CC1=N[C@@H](CCCCN2C[C@@H](CC(C)C)N(CCCC3CCCCC3)C2=S)CN1 (stereo partly specified) :: 261.9%
C[C@@H]1CN(CCCC[C@H]2CNC(CC3CCCC3)=N2)C(=S)N1CCCC1CCCCC1 :: 188%

List reported Activity for each of these compounds:
1. CC(C)C[C@@H]1CN(CCCC[C@H]2CNC(CCCCc3ccccc3)=N2)C(=S)N1CCCC1CCCCC1
2. CC(C)C[C@@H]1CN(CCCC[C@H]2CNC(C3CCCC3)=N2)C(=S)N1CC1CCC(C)CC1 (stereo partly specified)
3. S=C1N(CCCC[C@H]2CNC(C3CCCC3)=N2)C[C@@H](c2ccccc2)N1CCC1CCCCC1
4. CCC(C)CC1=N[C@@H](CCCCN2C[C@@H](C)N(CCCC3CCCCC3)C2=S)CN1 (stereo partly specified)
5. CC(C)C[C@@H]1CN(CCCC[C@H]2CNC(CCCc3ccccc3)=N2)C(=S)N1CC1CCC(C)CC1 (stereo partly specified)

Result:
1: 199.3%; 2: 253.6%; 3: 260.5%; 4: 142.6%; 5: 246.7%

Item: CCC(C)CC1=N[C@@H](CCCCN2C[C@@H](CC(C)C)N(CCCCC(C)C)C2=S)CN1 (stereo partly specified) | Activity: 222.6%

* * *

Would you kindly list Activity for each of these compounds?
Procedure Text: Induction of neurite outgrowth in rat hippocampal neurons assessed as neurite total length at 500 ng/ml after 48 hrs relative to control
Format: functional, Hippocampal neurone
One number for each entry, in %.

Use these answered entries as a reference point.
CC(C)CCCCN1C(=S)N(CCCC[C@H]2CNC(CCCCc3ccccc3)=N2)C[C@H]1c1ccccc1 :: 225.1
CC(C)CCCCN1C(=S)N(CCCC[C@H]2CNC(CC3CCCC3)=N2)C[C@H]1c1ccccc1 :: 273
C[C@@H]1CN(CCCC[C@H]2CNC(CCCCc3ccccc3)=N2)C(=S)N1CCCC1CCCCC1 :: 242.7
CCC(C)CC1=N[C@@H](CCCCN2C[C@@H](CC(C)C)N(CCCCC(C)C)C2=S)CN1 (some centres undefined) :: 239.5
CCC(C)CC1=N[C@@H](CCCCN2C[C@@H](C)N(CCCC3CCCCC3)C2=S)CN1 (some centres undefined) :: 357.5
CCC(C)C1=N[C@@H](CCCCN2C[C@@H](CC(C)C)N(CC3CCC(C)CC3)C2=S)CN1 (some centres undefined) :: 264.4
S=C1N(CCCC[C@H]2CNC(C3CCCC3)=N2)C[C@@H](c2ccccc2)N1CCC1CCCCC1 :: 185.9
CC(C)CCCCN1C(=S)N(CCCC[C@H]2CNC(CC3CCCC3)=N2)C[C@H]1C :: 323.7

Note: attention shifts to another entry.
Item: CCC(C)CC1=N[C@@H](CCCCN2C[C@@H](C)N(CCCCC(C)C)C2=S)CN1 (some centres undefined) | Activity: 323.0821

* * *

Procedure Text: Induction of neurite outgrowth in rat hippocampal neurons assessed as neurite total length at 31.25 ng/ml after 48 hrs relative to control
Type: functional, Hippocampal neurone
Property: Activity (%)
Answers are plain numbers, in %.

Use these answered entries as a reference point.
CC1CCC(CN2C(=S)N(CCCC[C@H]3CNC(C4CCCC4)=N3)C[C@H]2C)CC1 (some centres undefined) :: 128.3
CC(C)C[C@@H]1CN(CCCC[C@H]2CNC(C3CCCC3)=N2)C(=S)N1CCC1CCCCC1 :: 256.5
CC(C)C[C@@H]1CN(CCCC[C@H]2CNC(CCCc3ccccc3)=N2)C(=S)N1CC1CCC(C)CC1 (some centres undefined) :: 197

List reported Activity for each of these molecules:
1. S=C1N(CCCC[C@H]2CNC(CCCCc3ccccc3)=N2)C[C@@H](c2ccccc2)N1CCCC1CCCCC1
2. CCC(C)CC1=N[C@@H](CCCCN2C[C@@H](c3ccccc3)N(CCCCC(C)C)C2=S)CN1 (some centres undefined)
3. CC(C)CCCCN1C(=S)N(CCCC[C@H]2CNC(CCCCc3ccccc3)=N2)C[C@H]1C
4. CC(C)CCCCN1C(=S)N(CCCC[C@H]2CNC(CC3CCCC3)=N2)C[C@H]1C

Result:
1. 208.9
2. 179.4
3. 100.5
4. 137.9

List reported Activity for each of these molecules:
1. C[C@@H]1CN(CCCC[C@H]2CNC(CCCCc3ccccc3)=N2)C(=S)N1CCCC1CCCCC1
2. CCC(C)CC1=N[C@@H](CCCCN2C[C@@H](C)N(CCCC3CCCCC3)C2=S)CN1 (some centres undefined)

Result:
1: 122.1; 2: 121.4

* * *

Procedure Text: Induction of neurite outgrowth in rat hippocampal neurons assessed as neurite total length at 15.625 ng/ml after 48 hrs relative to control
Type: functional, Hippocampal neurone
Property: Activity (%)
Give bare numbers, in %.

Use these answered entries as a reference point.
CCC(C)CC1=N[C@@H](CCCCN2C[C@@H](C)N(CCCC3CCCCC3)C2=S)CN1 (stereo not given in full) :: 102.3
CC(C)C[C@@H]1CN(CCCC[C@H]2CNC(CCCc3ccccc3)=N2)C(=S)N1CC1CCC(C)CC1 (stereo not given in full) :: 144.9

List reported Activity for each of these molecules:
1. CCC(C)CC1=N[C@@H](CCCCN2C[C@@H](C)N(CCCCC(C)C)C2=S)CN1 (stereo not given in full)
2. CC(C)CCCCN1C(=S)N(CCCC[C@H]2CNC(CC3CCCC3)=N2)C[C@H]1C
3. CCC(C)CC1=N[C@@H](CCCCN2C[C@@H](CC(C)C)N(CCCC3CCCCC3)C2=S)CN1 (stereo not given in full)

Result:
1. 92.45
2. 113.8
3. 158.9

* * *

Would you kindly list Activity for each of these compounds?
Procedure Text: Induction of neurite outgrowth in rat hippocampal neurons assessed as neurite total length at 500 ng/ml after 48 hrs relative to control
Type: functional, Hippocampal neurone
Answers are plain numbers, in %.

Use these answered entries as a reference point.
CC(C)CCCCN1C(=S)N(CCCC[C@H]2CNC(CCCCc3ccccc3)=N2)C[C@H]1C :: 346.7
CCC(C)C1=N[C@@H](CCCCN2C[C@@H](c3ccccc3)N(CC3CCC(C)CC3)C2=S)CN1 (some centres undefined) :: 279.8
CCC(C)CC1=N[C@@H](CCCCN2C[C@@H](c3ccccc3)N(CCCC3CCCCC3)C2=S)CN1 (some centres undefined) :: 228.1
CC1CCC(CN2C(=S)N(CCCC[C@H]3CNC(C4CCCC4)=N3)C[C@H]2c2ccccc2)CC1 (some centres undefined) :: 229.6
CCC(C)CC1=N[C@@H](CCCCN2C[C@@H](CC(C)C)N(CCCC3CCCCC3)C2=S)CN1 (some centres undefined) :: 264.0755
CCC(C)CC1=N[C@@H](CCCCN2C[C@@H](c3ccccc3)N(CCCCC(C)C)C2=S)CN1 (some centres undefined) :: 276.3
CC(C)C[C@@H]1CN(CCCC[C@H]2CNC(C3CCCC3)=N2)C(=S)N1CC1CCC(C)CC1 (some centres undefined) :: 263
CCC(C)CC1=N[C@@H](CCCCN2C[C@@H](C)N(CCC3CCC(C)CC3)C2=S)CN1 (some centres undefined) :: 293.6

Note: attention shifts to another entry.
Item: CC1CCC(CCN2C(=S)N(CCCC[C@H]3CNC(CCCCc4ccccc4)=N3)C[C@H]2C)CC1 (some centres undefined) | Activity: 296.9

Source of measurements: ChEMBL document CHEMBL4266015
